target: T1, nanodisc embedded human CACNG1 expressed with a C-terminal PADRE-Flag-His tag (human, UniProt Q06432 1-222); test: SPR (Biacore T200), 25 C, anti-His-captured human CACNG1 nanodisc, antibody as analyte
T1 construct: Membrane protein (gamma-1 subunit of the skeletal muscle L-type calcium channel) in a nanodisc; also called human CACNG1 nanodisc; CACNG1 nanodisc; not shown: C-terminal PADRE-Flag-His tag
T1 sequence (Q06432 whole entry): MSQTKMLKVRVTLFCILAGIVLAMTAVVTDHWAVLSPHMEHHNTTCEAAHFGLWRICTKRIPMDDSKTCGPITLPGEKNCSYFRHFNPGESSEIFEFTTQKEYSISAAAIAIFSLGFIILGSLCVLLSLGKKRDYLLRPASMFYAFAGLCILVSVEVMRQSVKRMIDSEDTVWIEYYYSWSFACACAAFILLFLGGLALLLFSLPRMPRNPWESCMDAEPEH
Property measured: mAb Bound at 300 nM (RU)

>>> observed("H2aM31941N (antibody, V domains shown, also called antibody designation 8) VH: QVQLVQSGAEVKKPGASVKVSCKASGYAFTTYGITWVRQAPGQGLEWMGWISAYNGNTNYAEKVQGRFTMTTDTSTNTAYMELRSLRSDDTAVYFCARKGHYGSGTYYNPFGFDFWGQGTMVTVSS VL: EIMLMQSPGTLSLSPGERATLSCRASQSVSSSYLAWYQQKPGQAPRLLIYGASSRATDIPDRFSGSGSGTDFTLTISRLEPEDFAVYFCQQYYGSPWTFGQGTKVEIK")
"19 RU"
>>> observed("REGN9909 (antibody, mouse IgG2a, kappa, V domains shown, also called antibody designation 10) VH: EVQLLESGGGLVQPGGSLRLSCAASGFTFNNYGMSWVRQGPGKGLEWVSSISGSGGTTFYADSVKGRFTISRDNSKNTLYLQMNSLRAEDTAVYYCGKGGYCSSSGCRHYGMDVWGQGTTVTVSS VL: QSVLTQPPSASGTPGQRVTISCSGSSSNIGNNYIYWYQRLPGTTPKLLIYRNNQRPSGVPDRFSGSKSGTSASLAISGLRSEDEADYYCAAWDDTLSGYVFGTGTKVTVLR")
"22 RU"
>>> observed("REGN10715 (antibody, human IgG4 S228P, kappa, V domains shown, also called antibody designation 2) VH: QVQLQQWGAGLLKPSATLSRTCAVYGGSFSGYYWNWIRQSPGKGLEWIGEILHSGRTNYNPSLKSRVTISVDTSKNQFSLKLTSVTAADTAVYYCAGRIAARHGWFDPWGQGTLVTVSS VL: DIQMTQSPSSVSTSVGDRVTISCRASQDIRKWLAWYQQKPGKAPKLLIYATSSLQSGVPSRFSGSGSGTDFTLTISSLQPEDFATYFCQQANSFPFTFGQGTKLEIKR")
"31 RU"
